pKa listing for selected molecules.
ASSAY TEXT: physchem
TEST PARAMETERS: measured pKa values

Query CC(=O)NC(=O)NCc1ccccc1 [Compound 15, N-(Benzylcarbamoyl)acetamide] yields pKa of > 8

Query CS(=O)(=O)NCCCc1ccccc1 [Compound 11, N-(3-Phenylpropyl)methanesulfonamide] yields pKa of > 8

Query O=c1c(O)c(NCc2ccccc2)c1=O [Compound 31] yields pKa of < 4

Query O=c1c(O)c(Cc2ccccc2)c1=O [Compound 30] yields pKa of < 4

Query CONC(=O)CCc1ccccc1 [Compound 4, N-Methoxy-3-phenylpropanamide] yields pKa of > 8

* * *

ASSAY TEXT: physchem
TEST PARAMETERS: measured pKa values
pKa listing for selected molecules.

Below are worked cases with known answers.
> print(dat)
                                   molecule  result.value
1  CC(=O)N(O)CCc1ccccc1 [Compound 3, N-Hydroxy-N-phenethylacetamide]           > 8
2  NS(=O)(=O)CCc1ccccc1 [Compound 10, 2-Phenylethane-1-sulfonamide]           > 8
3  O=C(CCc1ccccc1)NO [Compound 2, N-(Hydroxy)-3-phenylpropanamide]           > 8

Query S=c1[nH]c(CCc2ccccc2)no1 [Compound 22] yields pKa of < 4

Query CC(=O)NOCCc1ccccc1 [Compound 5, N-Phenethoxyacetamide] yields pKa of > 8
